test: yeast display, Sf9 membrane polyspecificity reagent, FACS + sequencing; frameworks hold sequencing errors
measured-metric: polyreactivity (PSR sort gate)

// below: answered sequences
{"sequence-code": "QDQLVESGGGLVQAGGSLRLSCAASGSIFGKYTMGWYRQAPGKERELVAAISRSGSSTYYADSVKGRFTISRDNAKNTVYLQMNSLKPEDTAVYYCAAKFYYGVTSKFESWGQGTQVTVSS", "reported": "high polyreactivity"}
{"sequence-code": "QVQLVESGGGLVQAGGSLRLSCAASGGNFGRYAMGWYRQAPGKERELVADINWSGGANTNYADSVKGRFTISRDNAKNTVYLQMNSLKPEDTAVYYCAAPSYFTHSGRFDYWGQGTQVTVSS", "reported": "low polyreactivity"}
{"sequence-code": "QVQLVESVGGLVQAGGSLRLSCAASGFTFYKYAMGWYRQAPGKEREFVAAIRTRSDSTYYADSVKGRFTISRDNAKNTVYLQMNSLKPEDTAVYYCAAQGYVEVGYSRYYYWGQGTQVTVSS", "reported": "high polyreactivity"}
{"sequence-code": "QVQLVESGGGLVQAGGSLRLSCAASGRIFSYNAMGWYRQAPGKERELVAASTFSGGGTYYADSVKGRYTISRDNAKNPVYLQMNSLKPEDTAVYYCNNLSYGYSTYGYWGQGTQVTVSS", "reported": "low polyreactivity"}

Enquiry: Reported polyreactivity (PSR sort gate), sequence "QVQLVESGGGIVQAGGSLRLSCAASGSTLVKYAMGWYRQAPGKERELVAAISWSGGRTYYADSVKGRFTISRDNAKNTVYLQMNSLKPEDTAVYYCAARRKAVRYDYWGQGTQVTVSS" : ____
Return: high polyreactivity
